molecular target: IRAK4 (Homo sapiens); construct: endogenous in cells; host or cells: OCI-LY10; assay: IRAK4 MSD Degradation in OCI-LY10; assay type: cell-based; conditions: OCI-LY10 cells, Meso Scale Discovery, incubated 4 to 24 hours
observable: DC50

CC(C)Nc1cc(-n2ccc3cc(C#N)cnc32)ncc1C(=O)NC[C@H]1CC[C@H](CN(C)C2CCN(c3cccc4c3n(C)c(=O)n4C3CCC(=O)NC3=O)CC2)CC1 (stereo partly drawn) [I-84] : 50 to 100 nM
COc1cc2nn([C@H]3CC[C@H](CN(C)C4CCN(c5cccc6c5n(C)c(=O)n6C5CCC(=O)NC5=O)CC4)CC3)cc2cc1NC(=O)c1cc(F)cc(C(F)(F)F)c1 (stereo partly drawn) : 10 to 50 nM
COc1cc2nn([C@H]3CC[C@H](CN4C5CC4CN(c4cccc6c4n(C)c(=O)n6C4CCC(=O)NC4=O)C5)CC3)cc2cc1NC(=O)c1cncc(C#N)c1 (stereo partly drawn) : > 200 nM

====

Recorded DC50, one value per entry.
molecular target: IRAK4 (Homo sapiens); construct: endogenous in cells; host or cells: OCI-LY10; assay: IRAK4 MSD Degradation in OCI-LY10; type: cell-based; conditions: OCI-LY10 cells, Meso Scale Discovery, incubated 4 to 24 hours
observable: DC50

COc1ccc2c(c1C1CCN(C[C@H]3CC[C@H](n4cc5cc(NC(=O)c6cccc(C(F)(F)F)n6)ncc5n4)CC3)CC1)n(C)c(=O)n2[C@@H]1CCC(=O)NC1=O (single isomer, unassigned) [I-274] : 10 to 50 nM
COc1cc2nn([C@H]3CC[C@H](CN4CCC(c5cccc6c5n(C)c(=O)n6C5CCC(=O)NC5=O)CC4)CC3)cc2cc1NC(=O)c1ccc(C(F)(F)F)nc1 (some centres unmarked) [I-194] : > 200 nM
COc1cc2nc([C@H]3CC[C@H](CN4CCC(c5ccc6c(N7CCC(=O)NC7=O)cncc6c5)CC4)CC3)sc2cc1NC(=O)c1cccc(C(F)(F)F)n1 [I-125] : < 10 nM
CC(C)(O)c1cc2nc([C@H]3CC[C@H](C(=O)N4CC5(CC(CCNc6cccc7c6C(=O)N(C6CCC(=O)NC6=O)C7=O)C5)C4)CC3)sc2cc1NC(=O)c1cncc(C#N)c1 (some centres unmarked) [I-448] : > 200 nM
COc1ccc2c(c1C1CCN(C[C@H]3CC[C@H](n4cc5cc(NC(=O)c6cccc(C#N)n6)ccc5n4)CC3)CC1)n(C)c(=O)n2C1CCC(=O)NC1=O (some centres unmarked) [I-200] : < 10 nM

====

target: IRAK4 (Homo sapiens, UniProt Q9NWZ3); construct: endogenous in cells; host or cells: OCI-LY10; assay: IRAK4 MSD Degradation in OCI-LY10; assay type: cell-based; details: OCI-LY10 cells, Meso Scale Discovery, incubated 4 to 24 hours
Sequence (Q9NWZ3 whole entry): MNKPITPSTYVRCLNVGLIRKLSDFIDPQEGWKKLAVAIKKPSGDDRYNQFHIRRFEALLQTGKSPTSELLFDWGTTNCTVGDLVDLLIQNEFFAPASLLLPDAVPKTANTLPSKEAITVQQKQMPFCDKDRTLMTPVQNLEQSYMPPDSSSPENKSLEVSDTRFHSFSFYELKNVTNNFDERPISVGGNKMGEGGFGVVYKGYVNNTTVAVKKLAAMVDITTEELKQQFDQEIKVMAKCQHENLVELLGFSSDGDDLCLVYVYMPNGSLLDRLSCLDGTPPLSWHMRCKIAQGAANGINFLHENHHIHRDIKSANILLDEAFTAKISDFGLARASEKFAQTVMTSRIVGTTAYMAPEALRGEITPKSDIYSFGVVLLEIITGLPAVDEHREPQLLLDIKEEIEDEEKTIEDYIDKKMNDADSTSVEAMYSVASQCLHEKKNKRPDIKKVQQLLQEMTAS
Recorded DC50, one value per entry.
observable: DC50

COc1cc2nn([C@H]3CC[C@H](CN4CCC(c5cccc6c(N7CCC(=O)NC7=O)cncc56)CC4)CC3)cc2cc1NC(=O)c1cccc(C(F)(F)F)n1 [I-97] : < 10 nM
O=C1CCN(c2cncc3c(C4CCN(C[C@H]5CC[C@H](c6nc7cnc(NC(=O)c8cccc(C(F)(F)F)n8)cc7s6)CC5)CC4)cccc23)C(=O)N1 [I-171] : 10 to 50 nM
COc1ccc2c(c1N1CCN(C[C@H]3CC[C@H](n4cc(-c5cnc(-n6ccc7cc(C#N)cnc76)cc5NC(C)C)nn4)CC3)CC1)n(C)c(=O)n2C1CCC(=O)NC1=O (some centres unmarked) [I-295] : 10 to 50 nM
Cc1ccc2c(c1C1CCN(C[C@H]3CC[C@H](n4cc5cc(NC(=O)c6cccc(C(F)(F)F)n6)c(Cl)cc5n4)CC3)CC1)n(C)c(=O)n2C1CCC(=O)NC1=O (some centres unmarked) [I-73] : 10 to 50 nM
Cn1c(=O)n(C2CCC(=O)NC2=O)c2cccc(N3CC4CC(C3)N4C[C@H]3CC[C@H](n4cc5cc(NC(=O)c6cccc(C(F)(F)F)n6)c(C(C)(C)O)cc5n4)CC3)c21 (some centres unmarked) [I-232] : < 10 nM
COc1cc2nn([C@H]3CC[C@H](CN4CCC(c5cccc6c5n(C)c(=O)n6C5CCC(=O)NC5=O)CC4)CC3)cc2cc1NC(=O)c1cncc(Cl)c1 (some centres unmarked) [I-196] : < 10 nM
Cn1c(=O)n(C2CCC(=O)NC2=O)c2cccc(C3CCN(C[C@H]4C[C@@H](n5cc6cc(NC(=O)c7cccc(C(F)(F)F)n7)c(F)cc6n5)C4)CC3)c21 (some centres unmarked) [I-18] : > 200 nM
O=C1CCN(c2cncc3cc(C4CCN(C[C@H]5CC[C@H](c6nc7ccc(NC(=O)c8cccc(C(F)(F)F)n8)cc7s6)CC5)CC4)ccc23)C(=O)N1 [I-181] : > 200 nM
Cn1c(=O)n(C2CCC(=O)NC2=O)c2cccc(C3CCN(C[C@H]4CC[C@H](n5cc6cc(NC(=O)c7cccc(C(F)(F)F)n7)c(Cl)cc6n5)CC4)CC3)c21 (some centres unmarked) [I-24] : 10 to 50 nM
Cn1c(=O)n(C2CCC(=O)NC2=O)c2cccc(N3CC4CCC(C3)N4C[C@H]3CC[C@H](n4cc5cc(NC(=O)c6cccc(C(F)(F)F)n6)ccc5n4)CC3)c21 (some centres unmarked) [I-164] : < 10 nM
CC(C)Nc1cc(-n2ccc3cc(C(F)(F)F)cnc32)ncc1C(=O)N[C@H]1CC[C@H](CN2CCN(c3cccc4c3n(C)c(=O)n4C3CCC(=O)NC3=O)CC2)CC1 (some centres unmarked) [I-369] : 100 to 200 nM

====

Target: IRAK4 (Homo sapiens)
Construct: endogenous in cells; host or cells: OCI-LY10
Test: IRAK4 MSD Degradation in OCI-LY10
Assay type: cell-based
Settings: OCI-LY10 cells, Meso Scale Discovery, incubated 4 to 24 hours
Procedure: Degradation of IRAK4 in OCI-LY10 was quantitatively measured using Meso Scale Discovery technology. OCI-LY10 cells were seeded in 96-well plates (Corning 3799) with a density of 300,000 cells per well in 100 μL fresh media. […] The assay plates were then incubated at room temperature for 1 hour, washed 3 times with 150 μL/well TBST buffer, and 150 μL/well MSD reading buffer (Meso Scale Discovery catalog number R92TC-2) was added. […]
observable: DC50

O=C1CCN(c2cncc3cc(N4CCN(C[C@H]5CC[C@H](n6cc7cc(NC(=O)c8cccc(C(F)(F)F)n8)c(C(F)F)cc7n6)CC5)CC4)ccc23)C(=O)N1 : 10 to 50 nM
Cc1cccc(C(=O)Nc2cc3sc([C@H]4CC[C@H](CN5CCN(CCNc6cccc7c6C(=O)N(C6CCC(=O)NC6=O)C7=O)[C@H](C)C5)CC4)nc3cc2C(C)(C)O)n1 (stereo partly drawn) : 10 to 50 nM
N#Cc1cnc2c(C(=O)Nc3ccc4nn([C@H]5CC[C@H](CN6CCC(c7cccc8c(N9CCC(=O)NC9=O)cncc78)CC6)CC5)cc4c3)cnn2c1 : 10 to 50 nM
COc1cc2nn(C3CCN(C[C@H]4CC[C@H](c5cccc6c5n(C)c(=O)n6C5CCC(=O)NC5=O)CC4)CC3)cc2cc1NC(=O)c1cccc(C(F)(F)F)n1 (stereo partly drawn) : 10 to 50 nM
COc1cc2nn([C@H]3CC[C@H](CN4CCC(c5cccc6c5n(C)c(=O)n6C5CCC(=O)NC5=O)CC4)CC3)cc2cc1NC(=O)c1cncc(Cl)c1 (stereo partly drawn) [I-93] : < 10 nM
COc1ccc2c(c1C1CCN(C[C@H]3CC[C@H](n4cc5cc(NC(=O)c6cccc(C(F)(F)F)n6)ncc5n4)CC3)CC1)n(C)c(=O)n2C1CCC(=O)N(C)C1=O (stereo partly drawn) : > 200 nM

====

target: IRAK4 (Homo sapiens, UniProt Q9NWZ3); construct: endogenous in cells; host or cells: OCI-LY10; assay: IRAK4 MSD Degradation in OCI-LY10; type: cell-based; conditions: OCI-LY10 cells, Meso Scale Discovery, incubated 4 to 24 hours
Recorded DC50, one value per entry.
observable: DC50

COc1cc2nn([C@H]3CC[C@H](CN(C)C4CCN(c5cccc6c5n(C)c(=O)n6C5CCC(=O)NC5=O)CC4)CC3)cc2cc1-n1cc(-c2cccc(C(F)(F)F)n2)nn1 (some centres unmarked) [I-100] : > 200 nM
Cn1c(=O)n(C2CCC(=O)NC2=O)c2cccc(C3CCN(C[C@H]4C[C@H](n5cc6cc(NC(=O)c7cccc(C(F)(F)F)n7)c(Cl)cc6n5)C4)CC3)c21 (some centres unmarked) [I-90] : 10 to 50 nM
O=C1CCN(c2cncc3c(C4CCN(C[C@H]5CC[C@H](n6cc7cc(NC(=O)c8cccc(C(F)(F)F)n8)ccc7n6)CC5)CC4)cccc23)C(=O)N1 [I-68] : 10 to 50 nM
CC(C)(O)c1cc2nc([C@H]3CC[C@H](CN4CCO[C@@H](CCCNc5cccc6c5C(=O)N(C5CCC(=O)NC5=O)C6=O)C4)CC3)sc2cc1NC(=O)c1cncc(C#N)c1 (some centres unmarked) [I-454] : > 200 nM
COc1cc2nc([C@H]3CC[C@H](CN4CC5(CC(CCNc6cccc7c6C(=O)N(C6CCC(=O)NC6=O)C7=O)C5)C4)CC3)cn2cc1NC(=O)c1cccc(C(F)(F)F)n1 (some centres unmarked) [I-10] : 50 to 100 nM
COc1cc2nn([C@H]3CC[C@H](CN4CCCN(c5ccc6c(N7CCC(=O)NC7=O)cncc6c5)CC4)CC3)cc2cc1NC(=O)c1cccc(C(F)(F)F)n1 [I-356] : < 10 nM
Cn1c(=O)n(C2CCC(=O)NC2=O)c2cccc(C3CCN(C[C@H]4CC[C@H](n5cc6cc(NC(=O)c7cccc(C(F)(F)F)n7)ccc6n5)CC4)CC3)c21 (some centres unmarked) [I-57] : < 10 nM
CN(C[C@H]1CC[C@H](n2cc3cc(NC(=O)c4cncc(C#N)c4)c(N4C[C@H]5C[C@@H]4CO5)cc3n2)CC1)C1CCN(c2cccc3c2n(C)c(=O)n3C2CCC(=O)NC2=O)CC1 (some centres unmarked) [I-217] : > 200 nM
CC(C)Nc1c(C(=O)N[C@H]2CC[C@H](CN3CCN(c4cccc5c4n(C)c(=O)n5C4CCC(=O)NC4=O)CC3)CC2)cnc2c1Oc1cc(C#N)ccc1O2 (some centres unmarked) [I-407] : < 10 nM
Cc1cc(C2CCN(C[C@H]3CC[C@H](n4cc5cc(NC(=O)c6cccc(C(F)(F)F)n6)c(F)cc5n4)CC3)CC2)c2c(c1)n(C1CCC(=O)NC1=O)c(=O)n2C (some centres unmarked) [I-23] : 100 to 200 nM
COc1cc2nn([C@H]3CC[C@H](CN(C)C4CCN(c5cccc6c5n(C)c(=O)n6C5CCC(=O)NC5=O)CC4)CC3)cc2cc1NC(=O)c1cncc(C(F)(F)F)c1 (some centres unmarked) [I-92] : < 10 nM
